Molecular target: human NTCP (Homo sapiens, UniProt Q14973)
Sequence (Q14973 whole entry): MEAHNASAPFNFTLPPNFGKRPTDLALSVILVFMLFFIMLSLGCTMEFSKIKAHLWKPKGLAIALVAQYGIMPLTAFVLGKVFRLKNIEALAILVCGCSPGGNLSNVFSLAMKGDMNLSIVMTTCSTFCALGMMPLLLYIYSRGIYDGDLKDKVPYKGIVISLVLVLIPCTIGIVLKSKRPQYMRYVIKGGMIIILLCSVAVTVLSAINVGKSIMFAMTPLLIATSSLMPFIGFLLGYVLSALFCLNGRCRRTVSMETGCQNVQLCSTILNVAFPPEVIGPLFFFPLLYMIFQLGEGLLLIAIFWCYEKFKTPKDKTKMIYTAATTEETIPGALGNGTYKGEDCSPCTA
Test: Screening taurocholate uptake assay (96-well, [14C]taurocholate, 10 µM drug)
Details: Prestwick library screen, 10 µM drug; B-score of taurocholate uptake
Where a name gives a salt, the structure may show the parent alone.
Quick list: B-score functional assay per entry.

Molecule	Assay Target	B-score functional assay
CCCC(=O)Nc1ccc(OCC(O)CNC(C)C)c(C(C)=O)c1 (stereo not shown) [Acebutolol hydrochloride]	human NTCP (Homo sapiens, UniProt Q14973)	1.681
Cc1ccc(C(=O)c2ccc(CC(=O)O)n2C)cc1 [Tolmetin sodium salt dihydrate]	human NTCP (Homo sapiens, UniProt Q14973)	0.203
Cc1onc(-c2c(F)cccc2Cl)c1C(=O)N[C@@H]1C(=O)N2[C@@H]1SC(C)(C)[C@@H]2C(=O)O [Flucloxacillin sodium]	human NTCP (Homo sapiens, UniProt Q14973)	0.761
Cl.O=C(O)/C=C/c1ccc(Cn2ccnc2)cc1 [Ozagrel hydrochloride]	human NTCP (Homo sapiens, UniProt Q14973)	1.392

* * *

Biological target: UniProt:Q14973
Assay: Screening taurocholate uptake assay (96-well, [14C]taurocholate, 10 µM drug)
Settings: screening taurocholate uptake, 10 µM drug
Where a name gives a salt, the structure may show the parent alone.
Quick list: B-score functional assay per entry.
Observed Property: B-score functional assay

Compound	Observed Property	Experimental Value
CC(Oc1c(Cl)cccc1Cl)C1=NCCN1 (stereo not shown) [Lofexidine]	B-score functional assay	-0.33
CCN1CCN(C(=O)N[C@@H](C(=O)N[C@@H]2C(=O)N3[C@@H]2SC(C)(C)[C@@H]3C(=O)O)c2ccccc2)C(=O)C1=O [Piperacillin sodium salt]	B-score functional assay	-0.194
Cc1onc(-c2ccccc2Cl)c1C(=O)N[C@@H]1C(=O)N2[C@@H]1SC(C)(C)[C@@H]2C(=O)[O-].[Na+] [Cloxacillin sodium salt]	B-score functional assay	0.027
C[C@@H]1CN(c2c(F)c(N)c3c(=O)c(C(=O)O)cn(C4CC4)c3c2F)C[C@H](C)N1 [Sparfloxacin]	B-score functional assay	-2.411

* * *

Molecular target: human NTCP (Homo sapiens, UniProt Q14973)
Test: Screening taurocholate uptake assay (96-well, [14C]taurocholate, 10 µM drug)
Conditions: Prestwick library screen, taurocholate uptake, 10 µM drug
Counter-ions that a name gives are not always drawn.
Just a reminder that ties go to not satisfied: only B-score functional assay strictly below 0.3 counts as satisfied.

Molecule	Group Label
C[C@H]1C[C@H]2[C@@H]3CCC4=CC(=O)C=C[C@]4(C)[C@@]3(F)[C@@H](O)C[C@]2(C)[C@@]1(O)C(=O)CO [Betamethasone]	not satisfied
O=C(CCCN1CC=C(n2c(=O)[nH]c3ccccc32)CC1)c1ccc(F)cc1 [Droperidol]	satisfied
NS(=O)(=O)c1cc2c(cc1Cl)N=C(CSCc1ccccc1)NS2(=O)=O [Benzthiazide]	satisfied
Cc1ccc(O)c([C@H](CCN(C(C)C)C(C)C)c2ccccc2)c1 [Tolterodine tartrate]	satisfied
Nc1nc(=O)c2c([nH]1)NCC(CNc1ccc(C(=O)N[C@@H](CCC(=O)[O-])C(=O)[O-])cc1)N2C=O.[Ca+2] (stereo partly shown) [Folinic acid calcium salt]	not satisfied
O=C1C(O)=C([C@H]2CC[C@H](c3ccc(Cl)cc3)CC2)C(=O)c2ccccc21 [Atovaquone]	satisfied
CN(C)CC/C=C1/c2ccccc2Sc2ccc(Cl)cc21 [Chlorprothixene hydrochloride]	not satisfied
CC(C(O)c1ccc(O)cc1)N1CCC(Cc2ccccc2)CC1.CC(C(O)c1ccc(O)cc1)N1CCC(Cc2ccccc2)CC1.O=C(O)C(O)C(O)C(=O)O (stereo not shown) [Ifenprodil tartrate]	not satisfied
Cc1cn[nH]c1 [Fomepizole]	not satisfied
C#C[C@]1(O)CC[C@H]2[C@@H]3CCC4=C(CCC(=O)C4)[C@H]3CC[C@@]21C [Norethynodrel]	satisfied
C1CCc2nnnn2CC1 [Pentylenetetrazole]	satisfied
CC1CNc2c(cccc2S(=O)(=O)N[C@@H](CCCNC(=N)N)C(=O)N2CC[C@@H](C)C[C@@H]2C(=O)O)C1 (stereo partly shown) [Argatroban]	satisfied
NC(=O)CN1CCCC1=O [Piracetam]	not satisfied
COc1ccc2c(c1)N(C[C@H](C)CN(C)C)c1ccccc1S2.O=C(O)/C=C\C(=O)O [Methotrimeprazine maleat salt]	not satisfied
NC(=O)c1cc[n+](CC2=C(C(=O)O)N3C(=O)[C@@H](NC(=O)[C@@H](c4ccccc4)S(=O)(=O)[O-])[C@H]3SC2)cc1 [Cefsulodin sodium salt]	not satisfied
Cc1cc(-c2ccccc2)nnc1NCCN1CCOCC1 [Minaprine dihydrochloride]	not satisfied
CCN(CC)CCNC(=O)c1ccc(N)cc1 [Procainamide hydrochloride]	not satisfied
CC(C)(C)NC(=O)[C@@H]1CN(Cc2cccnc2)CCN1C[C@@H](O)C[C@@H](Cc1ccccc1)C(=O)N[C@H]1c2ccccc2C[C@H]1O [Indinavir sulfate]	satisfied
Cc1oncc1C(=O)Nc1ccc(C(F)(F)F)cc1 [Leflunomide]	not satisfied
CC(=O)OCC(=O)[C@@]1(O)CC[C@H]2[C@@H]3CCC4=CC(=O)CC[C@]4(C)[C@H]3[C@@H](O)C[C@@]21C [Cortisol acetate]	satisfied
CN(C)CCC=C1c2ccccc2CCc2ccccc21.Cl [Amitryptiline hydrochloride]	satisfied
NC[C@H]1O[C@H](O[C@H]2[C@H](O)[C@@H](O[C@H]3O[C@H](CO)[C@@H](O)[C@H](N)[C@H]3O)[C@H](N)C[C@@H]2N)[C@H](O)[C@@H](O)[C@@H]1O [Kanamycin A sulfate]	satisfied
NC(=O)N1c2ccccc2C=Cc2ccccc21 [Carbamazepine]	satisfied
CC(N)C12CC3CC(CC(C3)C1)C2 (stereo not shown) [Rimantadine Hydrochloride]	satisfied
COc1ccc(C(=O)c2ccccc2)c(O)c1 [Oxybenzone]	not satisfied
C[C@@H]1[C@H](O)[C@@H](C)/C=C/C=C/CC/C=C/C=C/C=C/C=C/C(O[C@H]2O[C@H](C)[C@@H](O)[C@H](N)[C@@H]2O)CC2O[C@](O)(CC(O)C(O)CCC(O)CC(O)CC(O)CC(=O)O[C@H]1C)CC(O)C2C(=O)O (stereo partly shown) [Nystatine]	satisfied
Cc1c(-c2ccccc2)oc2c(C(=O)OCCN3CCCCC3)cccc2c1=O [Flavoxate hydrochloride]	satisfied
OCC(O)CN1CCN(c2ccccc2)CC1 (racemic) [Dropropizine (R,S)]	satisfied
CCN[C@H]1CN(CCCOC)S(=O)(=O)c2sc(S(N)(=O)=O)cc21 [Brinzolamide]	satisfied
O=C(NCCN1CCOCC1)c1ccc(Cl)cc1 [Moclobemide]	not satisfied
O=C(O)c1cccnc1 [Niacin]	satisfied

* * *

Target: human NTCP (Homo sapiens, UniProt Q14973)
Assay: Screening fluorescent competitive Myrcludex B-FITC binding assay (96-well, 10 µM drug)
Conditions: Prestwick library screen, 10 µM drug; B-score of Myrcludex B-FITC binding

Molecule	B-score binding assay
CNC(=C[N+](=O)[O-])NCCSCc1csc(CN(C)C)n1 [Nizatidine]	1.375
O=C(NC(Cc1cc(=O)[nH]c2ccccc12)C(=O)O)c1ccc(Cl)cc1 (centres unmarked) [Rebamipide]	2.49
CCn1cc(C(=O)O)c(=O)c2cc(F)c(N3CCNCC3)nc21 [Enoxacin]	0.523
CCN1CCC[C@H]1CNC(=O)c1c(O)c(Cl)cc(Cl)c1OC [Raclopride]	0.374
Nc1ccc(C(=O)NCC(=O)O)cc1 [Aminohippuric acid]	0.866

* * *

Molecular target: human NTCP (Homo sapiens)
Assay: Screening fluorescent competitive Myrcludex B-FITC binding assay (96-well, 10 µM drug)
Conditions: Prestwick library screen, Myrcludex B-FITC binding, 10 µM drug
Counter-ions that a name gives are not always drawn.
Just a reminder that ties go to not fulfilled: only B-score binding assay strictly below 0.2 counts as fulfilled.

Molecule	Group Label
CN1CCC(=C2c3ccccc3CCc3sccc32)CC1.O=C(O)CC(O)C(=O)O [Pizotifen malate]	fulfilled
O=C(CCCCC(=O)Nc1c(I)cc(I)c(C(=O)O)c1I)Nc1c(I)cc(I)c(C(=O)O)c1I [Iodipamide]	fulfilled
Cn1c(=O)c2c(ncn2CCO)n(C)c1=O [Etofylline]	not fulfilled
CC1(C)O[C@@H]2C[C@H]3[C@@H]4CCC5=CC(=O)C=C[C@]5(C)[C@H]4[C@@H](O)C[C@]3(C)[C@]2(C(=O)CO)O1 [Desonide]	not fulfilled
CCN(CC)C(=O)N1CCN(C)CC1 [Diethylcarbamazine citrate]	fulfilled
C[C@]12CC[C@@H]3c4ccc(O)cc4C[C@@H](CCCCCCCCC[S+]([O-])CCCC(F)(F)C(F)(F)F)[C@H]3[C@@H]1CC[C@@H]2O (stereo partly shown) [Fulvestrant]	fulfilled
Nc1ccc(O)c(C(=O)O)c1 [Mesalamine]	not fulfilled
CN(C)CCCO[C@@H]1[C@H]2OC(C)(C)O[C@H]2O[C@@H]1[C@H](O)CO [Amiprilose hydrochloride]	not fulfilled
C[C@]12C=CC(=O)C=C1CC[C@H]1[C@@H]3C[C@@H](O)[C@](O)(C(=O)CO)[C@@]3(C)C[C@H](O)[C@@]12F [Triamcinolone]	fulfilled
Cc1ncc(C[n+]2csc(CCO)c2C)c(N)n1 [Thiamine hydrochloride]	fulfilled
C1CCc2nnnn2CC1 [Pentylenetetrazole]	fulfilled
NC[C@H]1O[C@H](O[C@H]2[C@H](O)[C@@H](O[C@H]3O[C@H](CO)[C@@H](O)[C@H](N)[C@H]3O)[C@H](N)C[C@@H]2N)[C@H](O)[C@@H](O)[C@@H]1O [Kanamycin A sulfate]	not fulfilled
CN1C2CCCC1CC(NC(=O)c1nn(C)c3ccccc13)C2 (stereo not shown) [Granisetron]	fulfilled
CN1CCN(CCCN2c3ccccc3Sc3ccc(C(F)(F)F)cc32)CC1 [Trifluoperazine dihydrochloride]	fulfilled
O=C(CCCN1CCC(O)(c2ccc(Br)cc2)CC1)c1ccc(F)cc1 [Bromperidol]	fulfilled
CN(C)C(=O)Oc1cccc([N+](C)(C)C)c1 [Neostigmine bromide]	not fulfilled
